Protocol text: pH stability of quenched linker-payloads in buffers (LCMS)
Type: physicochemical
Setup conditions: pH 5.0, 4 Day, RT
Value type: percentage of the remaining compound (%)
Respond with the bare value in %.

Compound: CC(C)[C@H](NC(=O)CCOCCOCCOCCOCCNC(=O)CCC(=O)N1Cc2ccccc2-c2c(nnn2CCOCCOCCOCCOCCC(=O)NCCS(=O)(=O)O)-c2ccccc21)C(=O)N[C@@H](CCCNC(N)=O)C(=O)Nc1ccc(COC(=O)NCC(=O)NCOCC(=O)[C@@]2(O)[C@H](C)C[C@H]3[C@@H]4CCC5=CC(=O)C=C[C@]5(C)[C@@]4(F)[C@@H](O)C[C@@]32C)cc1
percentage of the remaining compound (%): 100

Prompt: Fill blank: measured percentage of the remaining compound of the compound CCCC1O[C@@H]2C[C@H]3[C@@H]4CCC5=CC(=O)C=C[C@]5(C)[C@H]4[C@@H](O)C[C@]3(C)[C@]2(C(=O)COCNC(=O)CNC(=O)CCC(=O)N2Cc3ccccc3-c3c(nnn3CC3OC4OC5C(CO)OC(OC6C(CO)OC(OC7C(CO)OC(OC8C(CO)OC(OC9C(CO)OC(OC3C(O)C4O)C(O)C9O)C(O)C8O)C(O)C7O)C(O)C6O)C(O)C5O)-c3ccccc32)O1 (stereo partly shown) is ____.
Response: 100

Prompt: Which percentage of the remaining compound value belongs to CCCC1O[C@@H]2C[C@H]3[C@@H]4CCC5=CC(=O)C=C[C@]5(C)[C@H]4[C@@H](O)C[C@]3(C)[C@]2(C(=O)COCN(C)C(=O)CNC(=O)OCc2ccc(NC(=O)[C@H](CCCNC(N)=O)NC(=O)[C@@H](NC(=O)CCOCCOCCOCCOCCNC(=O)CCC(=O)N3Cc4ccccc4-c4c(nnn4CCOCCOCCOCCOCCC(=O)NCCS(=O)(=O)O)-c4ccccc43)C(C)C)cc2)O1 (stereo partly shown) ?
Response: 100

Prompt: Please look up its percentage of the remaining compound: CCCC1O[C@@H]2C[C@H]3[C@@H]4CCC5=CC(=O)C=C[C@]5(C)[C@H]4[C@@H](O)C[C@]3(C)[C@]2(C(=O)COC2CCCN2C(=O)CNC(=O)CCOCCOCCOCCOCCNC(=O)CCC(=O)N2Cc3ccccc3-c3c(nnn3CC3OC4OC5C(CO)OC(OC6C(CO)OC(OC7C(CO)OC(OC8C(CO)OC(OC9C(CO)OC(OC3C(O)C4O)C(O)C9O)C(O)C8O)C(O)C7O)C(O)C6O)C(O)C5O)-c3ccccc32)O1 (stereo partly shown)
Response: 69
